experimental.system: Rhodazain (Trypanosoma brucei rhodesiense, UniProt Q95PM0)
Sequence (Q95PM0 entry or part of it): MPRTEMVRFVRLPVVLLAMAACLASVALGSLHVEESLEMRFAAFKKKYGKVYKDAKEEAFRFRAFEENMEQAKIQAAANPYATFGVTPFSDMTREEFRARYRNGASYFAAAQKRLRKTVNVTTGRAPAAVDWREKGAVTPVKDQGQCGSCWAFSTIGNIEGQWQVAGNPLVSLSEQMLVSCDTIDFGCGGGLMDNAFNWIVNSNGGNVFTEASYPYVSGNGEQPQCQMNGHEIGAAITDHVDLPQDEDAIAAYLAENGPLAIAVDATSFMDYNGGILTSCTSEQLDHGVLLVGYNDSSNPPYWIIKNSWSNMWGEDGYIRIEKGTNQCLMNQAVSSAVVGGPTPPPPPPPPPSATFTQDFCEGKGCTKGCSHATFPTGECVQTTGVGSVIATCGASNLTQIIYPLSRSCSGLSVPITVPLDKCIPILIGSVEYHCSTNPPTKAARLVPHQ
assay.method.text: Cysteine protease inhibition, progress curve method, rhodazain
Type: biochemical, Trypanosoma brucei rhodesiensi
assay.setup: Rhodazain Ki (nM), 10 uM Cbz-Leu-Arg-AMC, 100 mM Na acetate pH 5.5, 5 mM cysteine
property.label: Ki (nM)

[[record]]
molecule = "CC(C)C[C@@H](NC(=O)c1ccc(-c2ccc([N+](=O)[O-])cc2)o1)C(=O)N[C@@H]1CCCN(S(=O)(=O)c2ccccn2)CC1=O (stereo in doubt)"
numeric_result = 9.1

[[record]]
molecule = "COc1ccc2oc(C(=O)N[C@@H](CC(C)C)C(=O)N[C@H]3CCCN(S(=O)(=O)c4ccccc4F)CC3=O)cc2c1"
numeric_result = 6.3

[[record]]
molecule = "CC(C)C[C@H](NC(=O)c1cccc2ccccc12)C(=O)N[C@H]1CCCN(S(=O)(=O)c2ccccn2)CC1=O"
numeric_result = 1.8

[[record]]
molecule = "Cc1coc(C(=O)N[C@@H](CC(C)C)C(=O)N[C@H]2CCCN(C(=O)Nc3ccccc3F)CC2=O)c1"
numeric_result = 4.9

[[record]]
molecule = "Cc1occc1S(=O)(=O)N1CCC[C@H](NC(=O)[C@H](CC(C)C)NC(=O)c2cc3ccccc3o2)C(=O)C1"
numeric_result = 5.1

[[record]]
molecule = "Cc1c(C(=O)NC(CC(C)C)C(=O)N[C@H]2CCCN(S(=O)(=O)c3cccc[n+]3[O-])CC2=O)oc2cc(F)ccc12 (single isomer, unassigned)"
numeric_result = 6.8


====

experimental.system: Falcipain 2 (Plasmodium falciparum)
Sequence (Q8I6U4 244-484): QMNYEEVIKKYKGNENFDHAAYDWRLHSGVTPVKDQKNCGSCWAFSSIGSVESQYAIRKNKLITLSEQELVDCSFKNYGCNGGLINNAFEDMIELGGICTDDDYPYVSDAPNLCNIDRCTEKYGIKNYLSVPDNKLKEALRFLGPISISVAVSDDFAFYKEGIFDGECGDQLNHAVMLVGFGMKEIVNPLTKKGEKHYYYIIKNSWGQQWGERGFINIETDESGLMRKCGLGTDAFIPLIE
assay.method.text: Cysteine protease inhibition, progress curve method, falcipain
Type: biochemical
assay.setup: 10 uM Cbz-Leu-Arg-AMC, 100 mM Na acetate pH 5.5, 5 mM cysteine
pKi: −log10 of the molar value.
property.label: pKi

[[record]]
compound = "CC(C)CC(NC(=O)c1ccc2c(c1)OCO2)C(=O)N[C@@H]1CCCN(S(=O)(=O)c2cccc[n+]2[O-])CC1=O (single isomer, unassigned)"
numeric_result = 8.11

[[record]]
compound = "CC(C)C[C@@H](NC(=O)c1cc2cc(OCCN3CCNCC3)ccc2o1)C(=O)N[C@@H]1CCCN(S(=O)(=O)c2ccccn2)CC1=O"
numeric_result = 7.85

[[record]]
compound = "CC(C)C[C@@H](NC(=O)c1ccc([N+](=O)[O-])o1)C(=O)N[C@@H]1CCCN(S(=O)(=O)c2ccccn2)CC1=O (stereo in doubt)"
numeric_result = 7.02

[[record]]
compound = "COc1cccc(S(=O)(=O)N2CCC[C@H](NC(=O)[C@H](CC(C)C)NC(=O)c3cc4cccc(OC)c4o3)C(=O)C2)c1"
numeric_result = 8.25

[[record]]
compound = "COc1cc2cc(C(=O)N[C@@H](CC(C)C)C(=O)NC3CCCN(S(=O)(=O)c4cn(C)cn4)CC3=O)oc2cc1OC (stereo partly drawn)"
numeric_result = 8.41

[[record]]
compound = "Cc1csc(C(=O)NC(CC(C)C)C(=O)N[C@H]2CCCN(C(=O)Nc3ccccc3F)CC2=O)c1 (stereo partly drawn)"
numeric_result = 8.41


====

experimental.system: Cruzain (Trypanosoma cruzi)
Sequence (P25779 123-337): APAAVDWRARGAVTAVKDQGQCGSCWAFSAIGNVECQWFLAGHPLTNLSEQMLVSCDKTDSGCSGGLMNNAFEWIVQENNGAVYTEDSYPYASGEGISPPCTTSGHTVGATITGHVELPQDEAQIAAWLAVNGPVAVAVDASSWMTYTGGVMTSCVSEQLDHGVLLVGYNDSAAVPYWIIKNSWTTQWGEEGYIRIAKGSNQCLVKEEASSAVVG
assay.method.text: Cysteine protease inhibition, progress curve method, cruzain
Format: biochemical
assay.setup: 4 uM Ac-Lys-Glu-Lys-Leu-Arg-AMC, 100 mM Na acetate pH 5.5, 5 mM cysteine; read-out: Cruzain Ki
property.label: Ki (nM)

[[record]]
compound = "CC(C)C[C@H](NC(=O)c1ccc2ccccc2n1)C(=O)N[C@H]1CCCN(C(=O)Nc2ccccc2F)CC1=O"
experimental_system = "Cruzain (Trypanosoma cruzi)"
value_units = "nM"
numeric_result = 8.4

[[record]]
compound = "O=C(NC(Cc1ccccc1)C(=O)N[C@@H]1CCCN(S(=O)(=O)c2ccccn2)CC1=O)c1cccc2ccccc12 (single isomer, unassigned)"
experimental_system = "Cruzain (Trypanosoma cruzi)"
value_units = "nM"
numeric_result = 8.4

[[record]]
compound = "COc1cccc2oc(C(=O)N[C@@H](CC(C)C)C(=O)NC3CCCN(S(=O)(=O)c4cccc[n+]4[O-])CC3=O)c(C)c12 (stereo partly drawn) [Example 209]"
experimental_system = "Cruzain (Trypanosoma cruzi)"
value_units = "nM"
numeric_result = 8.9

[[record]]
compound = "CC(C)C[C@@H](NC(=O)c1ccc2c(c1)OCO2)C(=O)N[C@@H]1CCCN(S(=O)(=O)c2ccccn2)CC1=O (stereo in doubt)"
experimental_system = "Cruzain (Trypanosoma cruzi)"
value_units = "nM"
numeric_result = 3.4

[[record]]
compound = "Cc1ccc2oc(C(=O)NC(CC(C)C)C(=O)N[C@H]3CCN(S(=O)(=O)c4cccc[n+]4[O-])CCC3=O)c(C)c2c1 (single isomer, unassigned)"
experimental_system = "Cruzain (Trypanosoma cruzi)"
value_units = "nM"
numeric_result = 6.6

[[record]]
compound = "Cc1c(C(=O)N[C@@H](CC(C)C)C(=O)NC2CCCN(S(=O)(=O)c3ccccn3)CC2=O)oc2ccccc12 (stereo partly drawn)"
experimental_system = "Cruzain (Trypanosoma cruzi)"
value_units = "nM"
numeric_result = 6.6

[[record]]
compound = "CC(C)C[C@@H](NC(=O)c1cc2cc(F)ccc2o1)C(=O)N[C@H]1CCCN(S(=O)(=O)c2cccc[n+]2[O-])CC1=O (single isomer, unassigned) [Example 194]"
experimental_system = "Cruzain (Trypanosoma cruzi)"
value_units = "nM"
numeric_result = 8.7

[[record]]
compound = "COc1ccc2oc(C(=O)N[C@H](CC(C)C)C(=O)N[C@@H]3CCCN(S(=O)(=O)c4ncccc4C)CC3=O)cc2c1 (stereo in doubt) [Example 162]"
experimental_system = "Cruzain (Trypanosoma cruzi)"
value_units = "nM"
numeric_result = 2.7

[[record]]
compound = "CC(C)C[C@H](NC(=O)c1cc2ccccc2o1)C(=O)N[C@H]1CCCN(S(=O)(=O)c2cccs2)CC1=O [Example 142]"
experimental_system = "Cruzain (Trypanosoma cruzi)"
value_units = "nM"
numeric_result = 2.4

[[record]]
compound = "COc1cccc2oc(C(=O)N[C@@H](CC(C)C)C(=O)N[C@H]3CCN(S(=O)(=O)c4cccc[n+]4[O-])CCC3=O)c(C)c12"
experimental_system = "Cruzain (Trypanosoma cruzi)"
value_units = "nM"
numeric_result = 20

[[record]]
compound = "CC(C)C[C@@H](NC(=O)c1cc2ccccc2o1)C(=O)NC1CCCN(S(=O)(=O)c2ccccn2)CC1=O (single isomer, unassigned)"
experimental_system = "Cruzain (Trypanosoma cruzi)"
value_units = "nM"
numeric_result = 3.8

[[record]]
compound = "CC(C)C[C@@H](NC(=O)c1cc2ccccc2[nH]1)C(=O)N[C@@H]1CCCN(S(=O)(=O)c2ccccn2)CC1=O (stereo in doubt)"
experimental_system = "Cruzain (Trypanosoma cruzi)"
value_units = "nM"
numeric_result = 17

[[record]]
compound = "CC(C)CCC(=O)N1CCCC(NC(=O)[C@@H](CC(C)C)NC(=O)c2cc3cc(OCCN4CCOCC4)ccc3o2)C(=O)C1 (stereo partly drawn)"
experimental_system = "Cruzain (Trypanosoma cruzi)"
value_units = "nM"
numeric_result = 24

[[record]]
compound = "CC(C)C[C@@H](NC(=O)c1ccc(Br)o1)C(=O)N[C@@H]1CCCN(S(=O)(=O)c2ccccn2)CC1=O (single isomer, unassigned) [Example 68]"
experimental_system = "Cruzain (Trypanosoma cruzi)"
value_units = "nM"
numeric_result = 3.3

[[record]]
compound = "CC(C)C[C@@H](NC(=O)c1ccc2[nH]ccc2c1)C(=O)NC1CCCN(S(=O)(=O)c2cccc[n+]2[O-])CC1=O (single isomer, unassigned)"
experimental_system = "Cruzain (Trypanosoma cruzi)"
value_units = "nM"
numeric_result = 4.1

[[record]]
compound = "CC(C)C[C@@H](NC(=O)c1cc2ccccc2s1)C(=O)N[C@@H]1CCCN(S(=O)(=O)c2ccccn2)CC1=O (stereo in doubt)"
experimental_system = "Cruzain (Trypanosoma cruzi)"
value_units = "nM"
numeric_result = 7.2

[[record]]
compound = "CC(C)CC(NC(=O)c1cc2ccccc2s1)C(=O)NC1CCCN(S(=O)(=O)c2ccccn2)CC1=O (stereo in doubt)"
experimental_system = "Cruzain (Trypanosoma cruzi)"
value_units = "nM"
numeric_result = 3

[[record]]
compound = "Cc1c(C(=O)N[C@@H](CC(C)C)C(=O)N[C@H]2CCCN(S(=O)(=O)c3ccccc3F)CC2=O)oc2ccccc12"
experimental_system = "Cruzain (Trypanosoma cruzi)"
value_units = "nM"
numeric_result = 8.6

[[record]]
compound = "CC(C)C[C@H](NC(=O)c1cnc2ccccc2n1)C(=O)N[C@H]1CCCN(S(=O)(=O)c2ccc(F)cc2)CC1=O"
experimental_system = "Cruzain (Trypanosoma cruzi)"
value_units = "nM"
numeric_result = 23

[[record]]
compound = "CC(C)C[C@@H](NC(=O)c1ccc2ccccc2n1)C(=O)N[C@@H]1CCCN(S(=O)(=O)c2ccccn2)CC1=O (single isomer, unassigned) [Example 151]"
experimental_system = "Cruzain (Trypanosoma cruzi)"
value_units = "nM"
numeric_result = 7.1

[[record]]
compound = "CC(C)C[C@@H](NC(=O)c1cc2cc(OCCN3CCOCC3)ccc2o1)C(=O)N[C@@H]1CCCN(S(=O)(=O)c2ccccn2)CC1=O [Example 18]"
experimental_system = "Cruzain (Trypanosoma cruzi)"
value_units = "nM"
numeric_result = 6.3

[[record]]
compound = "CCc1c(C(=O)NC(CC(C)C)C(=O)N[C@H]2CCN(S(=O)(=O)c3cccc[n+]3[O-])CCC2=O)oc2ccccc12 (single isomer, unassigned)"
experimental_system = "Cruzain (Trypanosoma cruzi)"
value_units = "nM"
numeric_result = 10

[[record]]
compound = "COc1cccc(S(=O)(=O)N2CCC[C@H](NC(=O)[C@H](CC(C)C)NC(=O)c3cc4cc(OC)ccc4o3)C(=O)C2)c1"
experimental_system = "Cruzain (Trypanosoma cruzi)"
value_units = "nM"
numeric_result = 19

[[record]]
compound = "COc1cccc(S(=O)(=O)N2CCC[C@H](NC(=O)[C@H](CC(C)C)NC(=O)c3cc4ccccc4o3)C(=O)C2)c1"
experimental_system = "Cruzain (Trypanosoma cruzi)"
value_units = "nM"
numeric_result = 12

